Target: MERTK (UniProt Q12866)
Sequence (Q12866 whole entry, looked up): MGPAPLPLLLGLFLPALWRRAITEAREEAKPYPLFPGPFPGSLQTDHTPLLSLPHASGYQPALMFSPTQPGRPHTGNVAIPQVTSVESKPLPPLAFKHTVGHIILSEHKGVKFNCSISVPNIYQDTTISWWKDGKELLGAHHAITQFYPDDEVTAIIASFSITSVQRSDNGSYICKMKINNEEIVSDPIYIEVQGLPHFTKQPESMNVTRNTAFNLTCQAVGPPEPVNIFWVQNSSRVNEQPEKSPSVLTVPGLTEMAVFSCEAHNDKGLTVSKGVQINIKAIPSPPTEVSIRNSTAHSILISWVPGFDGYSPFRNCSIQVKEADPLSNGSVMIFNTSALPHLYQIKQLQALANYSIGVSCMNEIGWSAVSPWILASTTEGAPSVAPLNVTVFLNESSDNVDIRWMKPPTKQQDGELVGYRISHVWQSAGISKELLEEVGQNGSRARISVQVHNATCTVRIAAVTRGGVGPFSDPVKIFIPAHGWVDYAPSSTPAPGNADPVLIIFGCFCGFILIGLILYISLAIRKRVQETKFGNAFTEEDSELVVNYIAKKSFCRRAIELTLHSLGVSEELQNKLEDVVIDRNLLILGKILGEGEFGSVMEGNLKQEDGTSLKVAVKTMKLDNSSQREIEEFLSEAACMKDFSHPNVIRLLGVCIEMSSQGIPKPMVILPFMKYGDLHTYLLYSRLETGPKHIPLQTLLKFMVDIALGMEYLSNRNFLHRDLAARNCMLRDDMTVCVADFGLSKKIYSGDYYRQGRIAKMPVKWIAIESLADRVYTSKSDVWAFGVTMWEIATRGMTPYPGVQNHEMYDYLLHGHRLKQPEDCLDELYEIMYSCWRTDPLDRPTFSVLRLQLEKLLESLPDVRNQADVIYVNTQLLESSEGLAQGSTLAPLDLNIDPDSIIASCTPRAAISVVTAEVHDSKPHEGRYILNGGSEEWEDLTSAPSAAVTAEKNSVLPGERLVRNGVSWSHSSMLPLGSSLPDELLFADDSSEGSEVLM
Experiment: phosphorylation enrichment, bacterial display (enrichment ratio); higher = better substrate or ligand; peptides without Tyr show the background
Measurement kind: phosphorylation enrichment
Give your answer as a number; write no unit.

Task: Kindly indicate its recorded phosphorylation enrichment. Item: DPKFHYDNTAG [KDR_Y1214]
Result: 0.505

Task: Kindly indicate its recorded phosphorylation enrichment. Item: SYTDPYAQPSL [KMT2D_Y2378_P2382S]
Result: 0.532

Task: Kindly indicate its recorded phosphorylation enrichment. Item: KINKMYSDHAM
Result: 0.432

Task: Kindly indicate its recorded phosphorylation enrichment. Item: KFMVGYEMIAQ [GALT_Y339_L342I]
Result: 0.457

---

Molecular target: c-Src SH2
Assay: SH2 binding enrichment of the phosphorylated peptide, bacterial display (enrichment ratio); higher = better substrate or ligand; peptides without Tyr show the background
Measurement kind: SH2 binding enrichment
Give your answer as a number; write no unit.

Task: Kindly indicate its recorded SH2 binding enrichment. Item: QGIYGYHHHMQ [UFSP2_Y287_Y290H]
Result: 1.07

Task: Kindly indicate its recorded SH2 binding enrichment. Item: VPLATYMRIYK [RPL21_Y30]
Result: 0.534

Task: Kindly indicate its recorded SH2 binding enrichment. Item: HFGCVYRGTLL [MET_Y1093_H1094R]
Result: 0.565

Task: Kindly indicate its recorded SH2 binding enrichment. Item: EIRTQYEAMAS [GFAP_Y242]
Result: 2.62

---

Test system: c-Abl (mouse)
Assay: phosphorylation enrichment, bacterial display (enrichment ratio); higher = better substrate or ligand; peptides without Tyr show the background
Could you please report measured phosphorylation enrichment for the items listed next?
Give your answer as a number; write no unit.

Task: Kindly indicate its recorded phosphorylation enrichment. Item: KVNKIYYPDFI [LIG3_Y767]
Result: 0.589

Task: Kindly indicate its recorded phosphorylation enrichment. Item: ERDTVYSSSGV [NELL2_Y350_N347D]
Result: 0.617

Task: Kindly indicate its recorded phosphorylation enrichment. Item: DRLAVYIDRVR [LMNA_Y45]
Result: 0.61

---

Target: c-Src SH2;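 also: peptide library displayed on the E. coli surface as eCPX fusions, selected cells deep-sequenced, score is each peptide's frequency after selection divided by its frequency in the input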
Assay: SH2 binding enrichment of the phosphorylated peptide, bacterial display (enrichment ratio); higher = better substrate or ligand; peptides without Tyr show the background
Could you please report measured SH2 binding enrichment for the items listed next?
Give your answer as a number; write no unit.

Task: Kindly indicate its recorded SH2 binding enrichment. Item: IEPVIDVVQRR [ANOS1_Y217_Y217D]
Result: 0.608

Task: Kindly indicate its recorded SH2 binding enrichment. Item: EPTPSYEVGQR [TSC2_Y1788_G1787S]
Result: 0.533

Task: Kindly indicate its recorded SH2 binding enrichment. Item: FSLPAYMDRRD [COX4I1_Y38]
Result: 0.626

Task: Kindly indicate its recorded SH2 binding enrichment. Item: HRGFLYLAIEY [TEK_Y899_Y897F]
Result: 0.45

Task: Kindly indicate its recorded SH2 binding enrichment. Item: VKMLEYRGKDV [CASP5_Y74_L75R]
Result: 0.386

Task: Kindly indicate its recorded SH2 binding enrichment. Item: SVMAEYGLFGA [VSX2_Y219_YF]
Result: 0.471

Task: Kindly indicate its recorded SH2 binding enrichment. Item: FPKVRYHWLVL [APTX_Y214_A212V_YF]
Result: 0.892

Task: Kindly indicate its recorded SH2 binding enrichment. Item: PSGPTYRGAVP [ASAH1_Y43]
Result: 0.519

Task: Kindly indicate its recorded SH2 binding enrichment. Item: EWKNNCPRLRE [OPA1_Y582_Y582C]
Result: 0.562

Task: Kindly indicate its recorded SH2 binding enrichment. Item: VFSTDCFRVGG [NTRK2_Y706_Y706C_YF]
Result: 0.816

Task: Kindly indicate its recorded SH2 binding enrichment. Item: SSSNPYSTVTV [ACTN2_Y599_M604V]
Result: 3.35

Task: Kindly indicate its recorded SH2 binding enrichment. Item: LAIERYVVVCK [RHO_Y136]
Result: 0.476

Task: Kindly indicate its recorded SH2 binding enrichment. Item: NDHHVYLEGTL [ALDOB_Y223]
Result: 1.72

Task: Kindly indicate its recorded SH2 binding enrichment. Item: ISKKIYDTIHD [CTNNA3_Y614]
Result: 5.91

Task: Kindly indicate its recorded SH2 binding enrichment. Item: EYQLPYYNTVP [BMPR1A_Y457_M460T]
Result: 6.88

Task: Kindly indicate its recorded SH2 binding enrichment. Item: LAVPLYKNGVK [CPS1_Y1069]
Result: 0.512

Task: Kindly indicate its recorded SH2 binding enrichment. Item: RQEEEYKRLSE [SFSWAP_Y133]
Result: 0.469
